Test system: MOLM-13
protocolSummary: mass response relative to vehicle control (EMD distance of treated vs reference mass distribution minus control baseline) (% of mean reference cell mass); higher = larger drug-induced change in single-cell mass distribution (stronger response)
assayConditions: 0.1 µM
Please note: 1 (yes) applies when mass response is 30 or greater, and 0 (no) applies otherwise.

compound: Nc1ncn([C@@H]2O[C@H](CO)[C@@H](O)[C@H]2O)c(=O)n1 [5-Azacytidine]
assignedCategory: 0 (no)

compound: CC(=O)[C@]1(O)Cc2c(O)c3c(c(O)c2[C@@H](O[C@H]2C[C@H](N)[C@H](O)[C@H](C)O2)C1)C(=O)c1ccccc1C3=O [Idarubicin]
assignedCategory: 1 (yes)

compound: CC1(COc2ccc3c(c2)ncn3-c2ccc3cccc(N4CCC(N)CC4)c3n2)COC1 [Crenolanib]
assignedCategory: 1 (yes)

compound: COc1cccc2c1C(=O)c1c(O)c3c(c(O)c1C2=O)C[C@@](O)(C(C)=O)C[C@@H]3O[C@H]1C[C@H](N)[C@H](O)[C@H](C)O1 [Daunorubicin]
assignedCategory: 0 (no)

compound: CC(C)(C)c1cc(NC(=O)Nc2ccc(-c3cn4c(n3)sc3cc(OCCN5CCOCC5)ccc34)cc2)no1 [Quizartinib]
assignedCategory: 0 (no)

###

System: PC9
protocolSummary: mass response relative to vehicle control (EMD distance of treated vs reference mass distribution minus control baseline) (% of mean reference cell mass); higher = larger drug-induced change in single-cell mass distribution (stronger response)
assayConditions: 10 µM

compound: CN(C)C/C=C/C(=O)Nc1cc2c(Nc3ccc(F)c(Cl)c3)ncnc2cc1O[C@H]1CCOC1
experimentalSystem: PC9
mass response: 30.7
//
compound: C#Cc1cccc(Nc2ncnc3cc(OCCOC)c(OCCOC)cc23)c1
experimentalSystem: PC9
mass response: 24.6
//
compound: O=C(O)C1(C(=O)O)CCC1.[NH2-].[NH2-].[Pt+2]
experimentalSystem: PC9
mass response: 11.1
//
compound: COc1cccc2c1C(=O)c1c(O)c3c(c(O)c1C2=O)C[C@@](O)(C(=O)CO)C[C@@H]3O[C@H]1C[C@H](N)[C@H](O)[C@H](C)O1
experimentalSystem: PC9
mass response: 40.9
//
compound: COc1cc(N2CCC(N3CCN(C)CC3)CC2)ccc1Nc1ncc(Cl)c(Nc2ccccc2P(C)(C)=O)n1
experimentalSystem: PC9
mass response: 51.3
//
compound: C/C(=C\c1csc(C)n1)[C@@H]1C[C@@H]2O[C@]2(C)CCC[C@H](C)[C@H](O)[C@@H](C)C(=O)C(C)(C)[C@@H](O)CC(=O)N1 [Ixabepilone]
experimentalSystem: PC9
mass response: 36.8
//
compound: COc1cc([C@@H]2c3cc4c(cc3[C@@H](O[C@@H]3O[C@@H]5CO[C@@H](C)O[C@H]5[C@H](O)[C@H]3O)[C@H]3COC(=O)[C@H]23)OCO4)cc(OC)c1O [Etoposide]
experimentalSystem: PC9
mass response: 36.2

###

Tested on: HT-29
protocolSummary: mass response relative to vehicle control (EMD distance of treated vs reference mass distribution minus control baseline) (% of mean reference cell mass); higher = larger drug-induced change in single-cell mass distribution (stronger response)
assayConditions: 10 µM
Quick list: mass response per entry.

compoundSmiles: CC(=O)Nc1cccc(-n2c(=O)n(C3CC3)c(=O)c3c(Nc4ccc(I)cc4F)n(C)c(=O)c(C)c32)c1
mass response: 24.4

compoundSmiles: CC(C)(C)c1nc(-c2cccc(NS(=O)(=O)c3c(F)cccc3F)c2F)c(-c2ccnc(N)n2)s1
mass response: 16.9

compoundSmiles: CNC(=O)c1ccc(-c2cnc3ncc(Cc4ccc5ncccc5c4)n3n2)cc1F
mass response: 12.2

compoundSmiles: CCCS(=O)(=O)Nc1ccc(F)c(C(=O)c2c[nH]c3ncc(-c4ccc(Cl)cc4)cc23)c1F
mass response: 24.3

compoundSmiles: CCc1c2c(nc3ccc(O)cc13)-c1cc3c(c(=O)n1C2)COC(=O)[C@]3(O)CC
mass response: 18
